// reported pIC50 per item
Tested on: Vero
Experiment: Cytotoxicity against vero cell line
Format: functional, cell-based
Settings: Chlorocebus sabaeus
pIC50: −log10 of the molar value.

Known pIC50 results, listed for orientation:
O=c1ccn(C2C=C(F)C(CO)O2)c(=O)[nH]1 (centres undefined)	4.08
Nc1ncnc2c1ncn2[C@@H]1C=C(F)[C@H](CO)O1	< 4.00
Nc1ncnc2c1ncn2[C@H]1C=C(F)[C@@H](CO)O1	< 4.00
OC[C@H]1O[C@@H](n2cnc3c(O)ncnc32)C=C1F	< 4.00
Nc1ccn([C@@H]2C=C(F)[C@H](CO)O2)c(=O)n1	< 4.00

(Q) Give Vero pIC50 for Nc1nc(O)c2ncn([C@H]3C=C(F)[C@@H](CO)O3)c2n1
(A) 4.12

(Q) Follow-up entry: Nc1nc(=O)n([C@H]2C=C(F)[C@@H](CO)O2)cc1F
(A) < 4.00

(Q) Follow-up entry: Nc1ccn([C@H]2C=C(F)[C@@H](CO)O2)c(=O)n1
(A) < 4.00

(Q) Follow-up entry: Nc1nc(=O)n([C@@H]2C=C(F)[C@H](CO)O2)cc1F
(A) < 4.00

====

System: adenosine deaminase (ADA)
Experiment: Ability to get deaminated by adenosine deaminase (ADA); Expressed as t1/2
Type: ADME, Bos taurus
Settings: cattle
Reported Property: half-life (min)
The reply should contain only the number, in min.

Known half-life results, listed for orientation:
Nc1ncnc2c1ncn2[C@H]1C=C(F)[C@@H](CO)O1	56
Nc1ncnc2c1ncn2[C@@H]1O[C@H](CO)[C@@H](O)[C@H]1O	0.5
Nc1ncnc2c1ncn2[C@H]1C=C[C@@H](CO)O1	4460

(Q) What does the data say about its half-life? Entry: Nc1ncnc2c1ncn2[C@@H]1O[C@H](CO)C=C1F
(A) 42

====

Assay: Cytotoxicity against human peripheral blood mononuclear cells (PBMC)
Assay type: functional, cell-based
Reported Property: IC50

Nc1nc(O)c2ncn([C@H]3C=C(F)[C@@H](CO)O3)c2n1	> 100 µM
Nc1ncnc2c1ncn2[C@H]1C=C(F)[C@@H](CO)O1	> 100 µM
Cc1cn([C@H]2C=C(F)[C@@H](CO)O2)c(=O)[nH]c1=O	> 100 µM
Nc1nc(=O)n([C@@H]2C=C(F)[C@H](CO)O2)cc1F	> 100 µM
Nc1ccn([C@H]2C=C[C@@H](CO)O2)c(=O)n1	65 µM
Nc1nc(=O)n([C@H]2C=C(F)[C@@H](CO)O2)cc1F	> 100 µM
Nc1ccn([C@H]2C=C(F)[C@@H](CO)O2)c(=O)n1	> 100 µM
Nc1ncnc2c1ncn2[C@@H]1C=C(F)[C@H](CO)O1	> 100 µM
O=c1ccn(C2C=C(F)C(CO)O2)c(=O)[nH]1 (stereo unspecified)	> 100 µM
OC[C@H]1O[C@@H](n2cnc3c(O)ncnc32)C=C1F	> 100 µM

Below: the item to evaluate.
(Q) What does the data say about its IC50? Entry: Nc1ccn([C@@H]2C=C(F)[C@H](CO)O2)c(=O)n1
(A) 86.9 µM

Data origin, for the record: ChEMBL document CHEMBL1148339
